Source of measurements: ChEMBL document CHEMBL1961873

system: Serine/threonine-protein kinase PAK 6 (Homo sapiens) (UniProt Q9NQU5);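 further: mean PAK6 inhibition reported from the GSK PKIS screen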
Sequence (Q9NQU5 whole entry, looked up): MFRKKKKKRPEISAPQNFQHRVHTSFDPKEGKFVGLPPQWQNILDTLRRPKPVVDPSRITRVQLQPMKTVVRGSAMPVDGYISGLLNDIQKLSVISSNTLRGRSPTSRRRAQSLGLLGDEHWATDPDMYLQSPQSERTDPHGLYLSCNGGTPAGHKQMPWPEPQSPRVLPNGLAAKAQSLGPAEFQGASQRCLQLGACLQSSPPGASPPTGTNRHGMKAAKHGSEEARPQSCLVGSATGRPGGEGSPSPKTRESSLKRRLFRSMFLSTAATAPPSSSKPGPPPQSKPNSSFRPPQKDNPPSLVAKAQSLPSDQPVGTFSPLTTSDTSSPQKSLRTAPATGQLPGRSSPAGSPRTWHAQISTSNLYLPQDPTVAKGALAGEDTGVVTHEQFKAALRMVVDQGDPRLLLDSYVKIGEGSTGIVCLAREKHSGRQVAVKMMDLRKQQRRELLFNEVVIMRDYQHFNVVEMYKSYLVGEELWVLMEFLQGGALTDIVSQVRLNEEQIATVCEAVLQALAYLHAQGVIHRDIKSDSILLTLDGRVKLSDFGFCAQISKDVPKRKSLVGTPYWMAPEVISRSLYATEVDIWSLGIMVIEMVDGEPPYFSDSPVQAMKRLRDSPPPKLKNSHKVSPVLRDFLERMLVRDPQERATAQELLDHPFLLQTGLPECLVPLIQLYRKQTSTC
recorded-conditions: at 0.1 µM
Below, each of the compounds is paired with its reported inhibition value.
Please reply with the bare figure in % and do not write the unit itself.

Completed entries (count: 3):
>  <smiles-repr>
O=C1Nc2ccc(-c3cccnc3)cc2C1=Cc1cc(Br)c(O)c(Br)c1

>  <recorded-value>
-0.06

$$$$
>  <smiles-repr>
OCc1ccc(-c2nc(-c3ccccn3)c(-c3ccc4c(c3)OCO4)[nH]2)cc1

>  <recorded-value>
3.79

$$$$
>  <smiles-repr>
COc1ccc(-c2nn3ncccc3c2-c2ccnc(Nc3cccc(C(F)(F)F)c3)n2)cc1

>  <recorded-value>
-2.15

$$$$

Please turn your attention to the following entry.
**Query** // fetch inhibition given entry COC(=O)Nc1nc2cc(Oc3ccc(NC(=O)Nc4cccc(Br)c4)cc3)ccc2[nH]1
**Result** -5.52

---

system: Cyclin-dependent kinase 2 (Homo sapiens) (UniProt P24941)
recorded-conditions: at 1 µM
quantity-measured: inhibition (%)
Report as a plain number; the unit % is understood.

>  <smiles-repr>
N#Cc1cccc(Nc2nccc(-c3cnn4ncccc34)n2)c1

>  <system>
Cyclin-dependent kinase 2 (Homo sapiens) (UniProt P24941)

>  <recorded-value>
121

$$$$
>  <smiles-repr>
COc1ccc(-c2nn3ncccc3c2-c2ccnc(Nc3cccc(C(F)(F)F)c3)n2)cc1

>  <system>
Cyclin-dependent kinase 2 (Homo sapiens) (UniProt P24941);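 further: mean inhibition of the CDK2–cyclin A kinase complex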

>  <recorded-value>
1.83

$$$$

Now take the following compound into account.
**Query** Indicate the recorded inhibition value for this compound: CCS(=O)(=O)c1ccc(OC)c(Nc2nccc(N(C)c3ccc4c(C)n[nH]c4c3)n2)c1
**Result** 3.06

---

Overview of recorded inhibition for various compounds
system: Homeodomain-interacting protein kinase 4 (Homo sapiens);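 further: reported as mean inhibition, part of the GSK PKIS dataset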
recorded-conditions: at 0.1 µM
Field: numeric (%). Do not append units.

>  <compound>
CC(C)c1ccc(Nc2nccc(-c3cnn4ncccc34)n2)cc1

>  <unit>
%

>  <inhibition>
11.2

$$$$
>  <compound>
CN(C)c1cc2c(Nc3ccc4c(cnn4Cc4ccccc4)c3)ncnc2cn1

>  <unit>
%

>  <inhibition>
0.72

$$$$
>  <compound>
Cc1nc(-c2ccccc2)n2nc(NCCCN3CCOCC3)ncc12

>  <unit>
%

>  <inhibition>
1.88

$$$$
>  <compound>
NS(=O)(=O)c1cccc(-c2cc3ccncc3cc2OCc2ccccc2)c1

>  <unit>
%

>  <inhibition>
1.76

$$$$
>  <compound>
CCOc1nccc2c1nc(-c1nonc1N)n2CC

>  <unit>
%

>  <inhibition>
6.7

$$$$
>  <compound>
NS(=O)(=O)c1ccc(NC=C2C(=O)Nc3ccc4ncsc4c32)cc1

>  <unit>
%

>  <inhibition>
2.67

$$$$
>  <compound>
C[C@@H](Oc1cc(-n2cnc3ccc(OC[C@@H](O)CO)cc32)sc1C(N)=O)c1ccccc1Cl

>  <unit>
%

>  <inhibition>
1.18

$$$$
>  <compound>
O=C1Nc2ccccc2/C1=C/Nc1ccc2[nH]c(=O)[nH]c2c1

>  <unit>
%

>  <inhibition>
2.76

$$$$

**Query** Query inhibition for COc1cc(/C=N/Nc2ncnc3c2cnn3C(C)C)ccc1O
**Result** 1.74

**Query** Return reported inhibition. Input compound: CS(=O)(=O)CCNCc1nc(-c2ccc3ncnc(Nc4ccc(OCc5cccc(C(F)(F)F)c5)cc4)c3c2)cs1
**Result** -0.35

**Query** Return reported inhibition. Input compound: COc1cc2ncnc(Nc3ccc4c(cnn4Cc4ccccc4)c3)c2cc1OC
**Result** -0.51

**Query** Answer with the recorded inhibition of Cc1ccc(O)cc1Nc1ccnc2ccc(S(C)(=O)=O)cc12 only.
**Result** 2.64

**Query** Return the recorded inhibition value; entry: COc1ccc(-c2nn3ncccc3c2-c2ccnc(Nc3cccc(C(F)(F)F)c3)n2)cc1
**Result** 0.75

**Query** Name the recorded inhibition of the item Nc1nccc(-c2c(-c3ccc(F)cc3)nn3cc(C(F)(F)F)ccc23)n1 in your answer.
**Result** -0.17

**Query** Answer with the recorded inhibition for the compound listed here: CCS(=O)(=O)c1ccc(OC)c(Nc2ncc(-c3cccc(OC)c3)o2)c1
**Result** 19.5

**Query** Please give the documented inhibition of CCCN1CCCC(c2ccc(Nc3nc(Nc4cc(F)ccc4C(N)=O)c4cc[nH]c4n3)c(OC)c2)C1 (stereo unspecified)
**Result** 58.1

**Query** Give a short answer stating reported inhibition for NS(=O)(=O)c1ccc(-c2cc3ccncc3cc2OCc2ccccc2)cc1 .
**Result** 3.58

**Query** Supply recorded inhibition for Cc1ccc2c(-c3ccnc(Nc4ccc5c(c4)OCCO5)n3)c(-c3ccc(C(F)(F)F)cc3)nn2n1 here.
**Result** -0.51

**Query** Supply measured inhibition of Nc1ccc(C#Cc2cncnc2Nc2ccc(OCc3cccc(F)c3)c(Cl)c2)cc1 in your reply.
**Result** 0.09

**Query** Give a short answer stating reported inhibition for NS(=O)(=O)c1ccc(Nc2cc(-c3cccc(O)c3)n[nH]2)cc1 .
**Result** 0.59

**Query** Recall and state the measured inhibition for NC(=O)c1sc(-n2cnc3ccccc32)cc1OCc1ccccc1Br .
**Result** 0.95

---

system: CDK3/Cyclin E (Homo sapiens) (UniProt P24864+Q00526)
Sequence (P24864 whole entry, looked up): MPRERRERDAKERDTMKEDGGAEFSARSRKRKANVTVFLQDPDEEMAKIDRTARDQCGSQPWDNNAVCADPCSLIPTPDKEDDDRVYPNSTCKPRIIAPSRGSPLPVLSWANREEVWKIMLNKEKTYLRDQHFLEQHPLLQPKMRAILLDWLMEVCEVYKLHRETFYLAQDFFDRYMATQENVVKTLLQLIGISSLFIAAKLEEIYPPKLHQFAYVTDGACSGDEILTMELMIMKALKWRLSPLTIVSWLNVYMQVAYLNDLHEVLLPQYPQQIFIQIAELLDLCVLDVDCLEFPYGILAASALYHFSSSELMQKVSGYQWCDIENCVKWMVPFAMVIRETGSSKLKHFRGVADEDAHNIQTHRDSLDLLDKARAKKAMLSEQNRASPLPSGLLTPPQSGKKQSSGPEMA
Sequence (Q00526 whole entry, looked up): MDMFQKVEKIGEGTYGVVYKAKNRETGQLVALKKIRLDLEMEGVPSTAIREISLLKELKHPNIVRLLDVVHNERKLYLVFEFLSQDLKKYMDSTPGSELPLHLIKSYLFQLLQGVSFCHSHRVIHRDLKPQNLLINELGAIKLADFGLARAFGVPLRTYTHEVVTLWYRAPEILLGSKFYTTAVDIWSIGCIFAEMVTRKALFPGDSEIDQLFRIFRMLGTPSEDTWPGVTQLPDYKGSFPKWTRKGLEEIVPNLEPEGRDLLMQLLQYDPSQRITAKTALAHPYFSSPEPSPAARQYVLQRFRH
recorded-conditions: at 1 µM
quantity-measured: inhibition (%)
Report as a plain number; the unit % is understood.

Below: 10 compounds and their reported inhibition.
>  <smiles-repr>
ON=C1CCc2cc(-c3nc(C4CCNCC4)[nH]c3-c3ccncc3)ccc21

>  <inhibition / %>
0.13

$$$$
>  <smiles-repr>
Cc1nc(-c2ccccc2)n2nc(NCCCN3CCOCC3)ncc12

>  <inhibition / %>
0.9

$$$$
>  <smiles-repr>
CN1CCN(C(=O)c2ccc(NC(=O)Nc3ccc(N(C)c4ccnc(Nc5ccc(CS(C)(=O)=O)cc5)n4)cc3)cc2)CC1

>  <inhibition / %>
2.12

$$$$
>  <smiles-repr>
Nc1nccc(C#Cc2cncnc2Nc2ccc(OCc3cccc(F)c3)c(Cl)c2)n1

>  <inhibition / %>
0.78

$$$$
>  <smiles-repr>
CS(=O)(=O)Nc1cccc(-c2ccc3c(NC(=O)C4CC4)n[nH]c3c2)c1

>  <inhibition / %>
3.8

$$$$
>  <smiles-repr>
CS(=O)(=O)CCNCc1nc(-c2ccc3ncnc(Nc4ccc(OCc5cccc(C(F)(F)F)c5)cc4)c3c2)cs1

>  <inhibition / %>
-0.52

$$$$
>  <smiles-repr>
Nc1nccc(-c2c(-c3ccc(F)cc3)ncn2CCCN2CCOCC2)n1

>  <inhibition / %>
-2.47

$$$$
>  <smiles-repr>
c1ccc(Nc2ncc(-c3ccccc3)o2)cc1

>  <inhibition / %>
5.78

$$$$
>  <smiles-repr>
COc1ccc2ncnc(Nc3ccc(OCc4ccccc4)cc3)c2c1

>  <inhibition / %>
-1.97

$$$$
>  <smiles-repr>
O=C(Nc1ccc(Oc2ccc3[nH]c(NC(=O)c4ccco4)nc3c2)cc1)Nc1cc(C(F)(F)F)ccc1F

>  <inhibition / %>
0.77

$$$$

**Query** Quote inhibition with test system CDK3/Cyclin E (Homo sapiens) (UniProt P24864+Q00526) for NC(=O)c1sc(-n2cnc3ccccc32)cc1OCc1ccccc1Br
**Result** 0.26

**Query** Fill in: inhibition on CDK3/Cyclin E (Homo sapiens) (UniProt P24864+Q00526), entry Cc1ccc(Nc2ccnc(Nc3cccc(C(N)=O)c3)n2)cc1O
**Result** 4.71

**Query** Output reported inhibition of the compound COc1cccc(-n2ncc3c(N/N=C/c4ccc(C)cc4)ncnc32)c1 on CDK3/Cyclin E (Homo sapiens) (UniProt P24864+Q00526).
**Result** -1.25

**Query** Specify inhibition for NS(=O)(=O)c1ccc(Nc2cc(-c3cccc(O)c3)n[nH]2)cc1 , system CDK3/Cyclin E (Homo sapiens) (UniProt P24864+Q00526).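 Further: each figure is a mean percent inhibition of the CDK3/cyclin E complex.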
**Result** 28.8

---

system: Serine/threonine-protein kinase BRSK2 (Homo sapiens) (UniProt Q8IWQ3);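 further: values are mean inhibition of BRSK2 from the GSK PKIS screening dataset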
Sequence (whole entry): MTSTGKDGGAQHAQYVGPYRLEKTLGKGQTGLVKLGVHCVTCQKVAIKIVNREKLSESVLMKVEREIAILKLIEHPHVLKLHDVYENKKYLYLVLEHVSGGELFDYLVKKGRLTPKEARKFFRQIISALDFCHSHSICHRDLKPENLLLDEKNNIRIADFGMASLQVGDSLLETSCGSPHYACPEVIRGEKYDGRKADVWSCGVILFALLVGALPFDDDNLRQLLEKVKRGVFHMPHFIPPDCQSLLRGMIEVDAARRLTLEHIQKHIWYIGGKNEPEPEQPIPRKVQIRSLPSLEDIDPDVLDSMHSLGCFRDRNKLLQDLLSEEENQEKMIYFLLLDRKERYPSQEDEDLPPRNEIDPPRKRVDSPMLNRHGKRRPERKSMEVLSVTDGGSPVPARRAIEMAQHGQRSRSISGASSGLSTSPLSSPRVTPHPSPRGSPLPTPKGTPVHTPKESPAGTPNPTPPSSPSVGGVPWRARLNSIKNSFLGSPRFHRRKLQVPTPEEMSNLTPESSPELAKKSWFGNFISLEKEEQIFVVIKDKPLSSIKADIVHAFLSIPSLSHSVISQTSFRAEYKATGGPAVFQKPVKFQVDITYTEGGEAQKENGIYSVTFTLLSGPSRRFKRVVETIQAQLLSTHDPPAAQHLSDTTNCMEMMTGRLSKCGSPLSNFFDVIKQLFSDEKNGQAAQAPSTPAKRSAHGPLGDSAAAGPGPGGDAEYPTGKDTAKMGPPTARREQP
recorded-conditions: at 0.1 µM
quantity-measured: inhibition (%)
Expressed in %, but write only the number.

Use these answered entries as a reference point.
>  <smiles-repr>
COc1cccc(-n2ncc3c(N/N=C/c4ccc(C)cc4)ncnc32)c1

>  <unit>
%

>  <inhibition>
5.73

$$$$
>  <smiles-repr>
COC(=O)c1ccc2c(c1)C(=Cc1cc(Br)c(O)c(Br)c1)C(=O)N2

>  <unit>
%

>  <inhibition>
0.42

$$$$
>  <smiles-repr>
C[C@@H](Oc1cc(-n2cnc3ccc(OC[C@@H](O)CO)cc32)sc1C(N)=O)c1ccccc1Cl

>  <unit>
%

>  <inhibition>
24.2

$$$$

**Query** Give a short answer stating reported inhibition for CS(=O)(=O)Nc1cccc(-c2ccc3c(NC(=O)C4CC4)n[nH]c3c2)c1 .
**Result** 2.32

**Query** Return value of inhibition for input CC(C)c1ccc2c(c1)NC(=O)/C2=N/Nc1ccc(S(N)(=O)=O)cc1 , no commentary.
**Result** -0.18
